# System: HaCaT cells
# Method Summary: Safety evaluation: cell viability of HaCaT cells by WST-1 method
# Assay type: cell-based, human
# Condition Details: 24 hours, read-out: LC50 (Median Lethal Concentration) against HaCaT cells
Readout: CC50

- Compound: "O=C1C=C(c2ccccc2)C(O)O1 (stereo not shown) [Fraglide-1, 5-hydroxy-4-phenyl-2(5H)butenolide]"
  Result: "> 500 µM"

---

# Tested on: xenobiotic responsive element (XRE)
# Method Summary: Evaluation of ability to trigger a foreign body reaction using XRE-NLuc::HaCaT reporter cells (NLuc luminescence per viable cell)
# Format: cell-based, human
# Condition Details: Homo sapiens; XRE-NLuc::HaCaT cells, reporter protein expression
pEC50: −log10 of the molar value.

- Smiles Code: "O=C1Nc2ccccc2/C1=C1/Nc2ccccc2C1=O"
  pEC50: 8.22
